Data origin, for the record: BigSolDB 2.1

# measurement_context: in ethanol, 293.15 K
property_measured: solubility (mole fraction)

Give the measured solubility (mole fraction) of `Cc1c(-c2ccccc2)oc2c(C(=O)O)cccc2c1=O` .
0.00181

* * *

# measurement_context: in isobutanol, 308.15 K
property_measured: solubility (mole fraction)
The answer should be written as a number, with no unit following it.

Give the measured solubility (mole fraction) of `Cc1c(-c2ccccc2)oc2c(C(=O)O)cccc2c1=O` .
0.00313

* * *

# measurement_context: in THF, 298.15 K
property_measured: solubility (mole fraction)
The answer should be written as a number, with no unit following it.

Give the measured solubility (mole fraction) of `Cc1c(-c2ccccc2)oc2c(C(=O)O)cccc2c1=O` .
0.0261

* * *

# measurement_context: in acetone, 283.15 K
property_measured: solubility (mole fraction)
The answer should be written as a number, with no unit following it.

Give the measured solubility (mole fraction) of `Cc1c(-c2ccccc2)oc2c(C(=O)O)cccc2c1=O` .
0.00219

* * *

# measurement_context: in n-butyl acetate, 313.15 K
property_measured: solubility (mole fraction)
The answer should be written as a number, with no unit following it.

Give the measured solubility (mole fraction) of `Cc1c(-c2ccccc2)oc2c(C(=O)O)cccc2c1=O` .
0.00221

* * *

# measurement_context: in methyl acetate, 303.15 K
property_measured: solubility (mole fraction)
The answer should be written as a number, with no unit following it.

Give the measured solubility (mole fraction) of `Cc1c(-c2ccccc2)oc2c(C(=O)O)cccc2c1=O` .
0.00302

* * *

# measurement_context: in acetone, 293.15 K
property_measured: solubility (mole fraction)
The answer should be written as a number, with no unit following it.

Give the measured solubility (mole fraction) of `Cc1c(-c2ccccc2)oc2c(C(=O)O)cccc2c1=O` .
0.00301

* * *

# measurement_context: in ethyl acetate, 283.15 K
property_measured: solubility (mole fraction)

Give the measured solubility (mole fraction) of `Cc1c(-c2ccccc2)oc2c(C(=O)O)cccc2c1=O` .
0.00114

* * *

# measurement_context: in ethanol, 308.15 K
property_measured: solubility (mole fraction)
The answer should be written as a number, with no unit following it.

Give the measured solubility (mole fraction) of `Cc1c(-c2ccccc2)oc2c(C(=O)O)cccc2c1=O` .
0.00304

* * *

# measurement_context: in methyl acetate, 288.15 K
property_measured: solubility (mole fraction)
The answer should be written as a number, with no unit following it.

Give the measured solubility (mole fraction) of `Cc1c(-c2ccccc2)oc2c(C(=O)O)cccc2c1=O` .
0.00145

* * *

# measurement_context: in isobutanol, 313.15 K
property_measured: solubility (mole fraction)
The answer should be written as a number, with no unit following it.

Give the measured solubility (mole fraction) of `Cc1c(-c2ccccc2)oc2c(C(=O)O)cccc2c1=O` .
0.00376

* * *

# measurement_context: in methyl acetate, 318.15 K
property_measured: solubility (mole fraction)
The answer should be written as a number, with no unit following it.

Give the measured solubility (mole fraction) of `Cc1c(-c2ccccc2)oc2c(C(=O)O)cccc2c1=O` .
0.0057

* * *

# measurement_context: in THF, 318.15 K
property_measured: solubility (mole fraction)

Give the measured solubility (mole fraction) of `Cc1c(-c2ccccc2)oc2c(C(=O)O)cccc2c1=O` .
0.0517
